# TGT: Serine/threonine-protein kinase SIK2 (Homo sapiens, UniProt Q9H0K1)
# Sequence (Q9H0K1 whole entry): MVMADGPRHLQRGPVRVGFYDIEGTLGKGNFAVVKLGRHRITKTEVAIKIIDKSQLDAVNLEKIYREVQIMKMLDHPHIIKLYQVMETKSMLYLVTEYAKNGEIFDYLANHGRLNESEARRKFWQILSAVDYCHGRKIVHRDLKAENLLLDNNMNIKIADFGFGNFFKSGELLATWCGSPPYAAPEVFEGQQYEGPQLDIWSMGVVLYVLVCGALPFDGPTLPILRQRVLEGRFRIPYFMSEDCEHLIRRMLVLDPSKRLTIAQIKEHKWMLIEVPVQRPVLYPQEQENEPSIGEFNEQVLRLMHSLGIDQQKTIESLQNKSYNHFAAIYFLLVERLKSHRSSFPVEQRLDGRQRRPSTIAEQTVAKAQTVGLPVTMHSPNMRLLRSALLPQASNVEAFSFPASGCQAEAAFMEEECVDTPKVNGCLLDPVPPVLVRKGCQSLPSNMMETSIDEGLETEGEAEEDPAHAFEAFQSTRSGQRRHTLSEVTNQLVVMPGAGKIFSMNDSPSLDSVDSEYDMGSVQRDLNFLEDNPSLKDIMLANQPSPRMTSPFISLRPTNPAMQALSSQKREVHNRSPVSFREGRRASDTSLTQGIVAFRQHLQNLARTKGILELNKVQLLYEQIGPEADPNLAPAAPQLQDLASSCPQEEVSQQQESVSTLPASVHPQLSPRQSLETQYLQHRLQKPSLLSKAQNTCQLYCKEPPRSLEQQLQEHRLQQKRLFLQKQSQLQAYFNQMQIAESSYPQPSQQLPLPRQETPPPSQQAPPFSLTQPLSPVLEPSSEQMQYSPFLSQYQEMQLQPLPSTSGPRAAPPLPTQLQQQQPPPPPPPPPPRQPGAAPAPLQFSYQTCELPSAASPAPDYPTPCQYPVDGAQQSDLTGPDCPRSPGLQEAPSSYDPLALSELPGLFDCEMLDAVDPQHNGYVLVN
# TEST SUMMARY: Inhibition of SIK2 (unknown origin) expressed in HEK293T cells using NanoGlo as substrate incubated for 20 hrs by NanoBRET assay
Assign EC50 to each entry below.
Give bare numbers, in µM.

Batch of 5 compounds: report EC50 for each.
1. CNc1ncc2cc(-c3ccc(-c4cccc(C)n4)cc3Cl)c(=O)n(CCCCN)c2n1
2. CNc1ncc2cc(-c3ccc(-c4cccc(C)n4)cc3Cl)c(=O)n(CCCCCN)c2n1
3. COc1ccc(O)c(Nc2ncc3cc(-c4ccc(-c5cccc(C)n5)cc4Cl)c(=O)n(CCCCN)c3n2)c1
4. Cc1cccc(-c2ccc(-c3cc4cnc(Nc5ccc(O)cc5)nc4n(CCCCN)c3=O)c(Cl)c2)n1
5. CNc1ncc2cc(-c3ccc(-c4cccc(C)n4)cc3Cl)c(=O)n(CCCCOC)c2n1

Response:
0.099
0.061
0.543
0.062
1.3

Batch of 7 compounds: report EC50 for each.
1. CNc1ncc2cc(-c3ccc(-c4cccc(C)n4)cc3Cl)c(=O)n(CCOC)c2n1
2. Cc1cccc(-c2ccc(-c3cc4cnc(Nc5ccc(C)c(O)c5)nc4n(CCCCN)c3=O)c(Cl)c2)n1
3. CNc1ncc2cc(-c3ccc(-c4cccc(C)n4)cc3Cl)c(=O)n(CCC3CCNCC3)c2n1
4. CNc1ncc2cc(-c3ccc(-c4cccc(C)n4)cc3Cl)c(=O)n(C[C@H]3CC[C@H](N)CC3)c2n1
5. CNc1ncc2cc(-c3ccc(-c4cccc(C)n4)cc3Cl)c(=O)n(CCCCO)c2n1
6. Cc1cccc(-c2ccc(-c3cc4cnc(NCCCN5CCNCC5)nc4n(CCCCN)c3=O)c(Cl)c2)n1
7. CNc1ncc2cc(-c3ccc(-c4cccc(C)n4)cc3Cl)c(=O)n(CCO)c2n1

Response:
1. 2.5
2. 0.037
3. 0.078
4. 0.016
5. 0.138
6. 5.9
7. 0.871

Batch of 6 compounds: report EC50 for each.
1. CNc1ncc2cc(-c3ccc(-c4cccc(C)n4)cc3Cl)c(=O)n(CCCOC)c2n1
2. Cc1cccc(-c2ccc(-c3cc4cnc(NCCCN5CCCC5=O)nc4n(CCCCN)c3=O)c(Cl)c2)n1
3. Cc1cccc(-c2ccc(-c3cc4cnc(NCCCN5CCOCC5)nc4n(CCCCN)c3=O)c(Cl)c2)n1
4. Cc1cccc(-c2ccc(-c3cc4cnc(Nc5cc(C(F)(F)F)ccc5C)nc4n(CCCCN)c3=O)c(Cl)c2)n1
5. Cc1cccc(-c2ccc(-c3cc4cnc(NC(CO)CO)nc4n(CCCCN)c3=O)c(Cl)c2)n1
6. COc1cc(N2CCN(C)CC2)ccc1Nc1ncc2cc(-c3ccc(-c4cccc(C)n4)cc3Cl)c(=O)n(CCCCN)c2n1

Response:
1.7
1.3
0.512
5.5
7.4
0.153

----------
# TGT: Serine/threonine-protein kinase SIK2 (Homo sapiens, UniProt Q9H0K1)
# TEST SUMMARY: Inhibition of SIK2 (unknown origin) expressed in HEK293T cells using NanoGlo as substrate incubated for 20 hrs by NanoBRET assay
pEC50: −log10 of the molar value.
Decide using pEC50: a value greater than or equal to 6 is condition met, a smaller one is condition not met.

Previously resolved entries follow.
{"columns": ["SMILES INPUT", "TGT", "DISCRETE LABEL"],
 "data": [
  ["CNc1ncc2cc(-c3ccc(-c4cccc(C)n4)cc3Cl)c(=O)[nH]c2n1", "Serine/threonine-protein kinase SIK2 (Homo sapiens, UniProt Q9H0K1)", "condition not met"],
  ["Cc1cccc(-c2ccc(-c3cc4cnc(Nc5ccc(F)c(CO)c5)nc4n(CCCCN)c3=O)c(Cl)c2)n1", "Serine/threonine-protein kinase SIK2 (Homo sapiens, UniProt Q9H0K1)", "condition met"],
  ["CNc1ncc2cc(-c3ccc(-c4cccc(C)n4)cc3Cl)c(=O)n(CCCN)c2n1", "Serine/threonine-protein kinase SIK2 (Homo sapiens, UniProt Q9H0K1)", "condition met"],
  ["Cc1cccc(-c2ccc(-c3cc4cnc(NCCCc5ccc(N)cc5)nc4n(CCCCN)c3=O)c(Cl)c2)n1", "Serine/threonine-protein kinase SIK2 (Homo sapiens, UniProt Q9H0K1)", "condition met"],
  ["COc1cc(N2CCOCC2)ccc1Nc1ncc2cc(-c3ccc(-c4cccc(C)n4)cc3Cl)c(=O)n(CCCCN)c2n1", "Serine/threonine-protein kinase SIK2 (Homo sapiens, UniProt Q9H0K1)", "condition met"]
]}

Prompt: Exam item: decide whether the reported pEC50 for Cc1cccc(-c2ccc(-c3cc4cnc(Nc5ccc(CCCO)cc5)nc4n(CCCCN)c3=O)c(Cl)c2)n1 is at least 6.
Response: condition met

Prompt: Exam item: decide whether the reported pEC50 for CNc1ncc2cc(-c3ccc(-c4cccc(C)n4)cc3Cl)c(=O)n(C)c2n1 is at least 6.
Response: condition not met

Prompt: Exam item: decide whether the reported pEC50 for CNc1ncc2cc(-c3ccc(-c4cccc(C)n4)cc3Cl)c(=O)n(CCCO)c2n1 is at least 6.
Response: condition met

Prompt: Exam item: decide whether the reported pEC50 for CNc1ncc2cc(-c3ccc(-c4cccc(C)n4)cc3Cl)c(=O)n(CCCCCO)c2n1 is at least 6.
Response: condition met

----------
# TGT: Serine/threonine-protein kinase PAK 1 (Homo sapiens) (UniProt Q13153)
# Sequence (Q13153 whole entry): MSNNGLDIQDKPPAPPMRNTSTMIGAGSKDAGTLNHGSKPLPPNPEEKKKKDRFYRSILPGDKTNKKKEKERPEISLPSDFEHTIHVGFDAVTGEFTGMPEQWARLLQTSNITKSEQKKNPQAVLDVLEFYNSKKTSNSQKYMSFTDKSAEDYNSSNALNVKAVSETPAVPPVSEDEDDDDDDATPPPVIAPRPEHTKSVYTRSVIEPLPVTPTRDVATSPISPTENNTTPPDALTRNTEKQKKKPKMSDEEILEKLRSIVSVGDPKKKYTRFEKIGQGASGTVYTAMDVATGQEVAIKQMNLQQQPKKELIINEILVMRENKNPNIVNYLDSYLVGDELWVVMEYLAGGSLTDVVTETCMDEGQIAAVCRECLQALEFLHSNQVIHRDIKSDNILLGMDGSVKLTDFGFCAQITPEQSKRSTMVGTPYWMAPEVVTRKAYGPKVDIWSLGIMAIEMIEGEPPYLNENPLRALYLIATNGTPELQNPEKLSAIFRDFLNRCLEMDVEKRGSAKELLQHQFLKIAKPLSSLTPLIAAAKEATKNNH
# TEST SUMMARY: Binding affinity to recombinant PAK1 (unknown origin) assessed as change in melting temperature by DSF analysis
Assign ΔTm to each entry below.
Numbers only, in °C.

Completed entries (count: 3):
{"columns": ["SMILES INPUT", "TGT", "QUANTITATIVE READOUT"],
 "data": [
  ["Cc1cccc(-c2ccc(-c3cc4cnc(Nc5ccc(C)c(O)c5)nc4n(CCCCN)c3=O)c(Cl)c2)n1", "Serine/threonine-protein kinase PAK 1 (Homo sapiens) (UniProt Q13153)", 9.1],
  ["Cc1cccc(-c2ccc(-c3cc4cnc(NCCCc5ccc(N)cc5)nc4n(CCCCN)c3=O)c(Cl)c2)n1", "Serine/threonine-protein kinase PAK 1 (Homo sapiens) (UniProt Q13153)", 6.8],
  ["CNc1ncc2cc(-c3ccc(-c4cccc(C)n4)cc3Cl)c(=O)n(CCCCN)c2n1", "Serine/threonine-protein kinase PAK 1 (Homo sapiens) (UniProt Q13153)", 6.5]
]}

Batch of 4 compounds: report ΔTm for each.
1. Cc1cccc(-c2ccc(-c3cc4cnc(NCCCN5CCCC5=O)nc4n(CCCCN)c3=O)c(Cl)c2)n1
2. CNc1ncc2cc(-c3ccc(-c4cccc(C)n4)cc3Cl)c(=O)n(C)c2n1
3. COc1cc(N2CCN(C)CC2)ccc1Nc1ncc2cc(-c3ccc(-c4cccc(C)n4)cc3Cl)c(=O)n(CCCCN)c2n1
4. CNc1ncc2cc(-c3ccc(-c4cccc(C)n4)cc3Cl)c(=O)n(CCOC)c2n1

Response:
1. 3.6
2. 3.2
3. 8.8
4. 4.1

Batch of 2 compounds: report ΔTm for each.
1. CNc1ncc2cc(-c3ccc(-c4cccc(C)n4)cc3Cl)c(=O)n(CCCCOC)c2n1
2. CNc1ncc2cc(-c3ccc(-c4cccc(C)n4)cc3Cl)c(=O)n(CCCCO)c2n1

Response:
4.8
5

Batch of 2 compounds: report ΔTm for each.
1. Cc1cccc(-c2ccc(-c3cc4cnc(Nc5ccc(CCCO)cc5)nc4n(CCCCN)c3=O)c(Cl)c2)n1
2. CNc1ncc2cc(-c3ccc(-c4cccc(C)n4)cc3Cl)c(=O)n(CCCN)c2n1

Response:
[9.1, 4]

Batch of 4 compounds: report ΔTm for each.
1. CNc1ncc2cc(-c3ccc(-c4cccc(C)n4)cc3Cl)c(=O)n(CCCCCN)c2n1
2. Cc1cccc(-c2ccc(-c3cc4cnc(NC(CO)CO)nc4n(CCCCN)c3=O)c(Cl)c2)n1
3. COc1ccc(O)c(Nc2ncc3cc(-c4ccc(-c5cccc(C)n5)cc4Cl)c(=O)n(CCCCN)c3n2)c1
4. Cc1cccc(-c2ccc(-c3cc4cnc(Nc5cc(C(F)(F)F)ccc5C)nc4n(CCCCN)c3=O)c(Cl)c2)n1

Response:
6.3
5.1
4.5
5.9

----------
# TGT: Serine/threonine-protein kinase 24 (Homo sapiens, UniProt Q9Y6E0)
# Sequence (Q9Y6E0 whole entry, looked up): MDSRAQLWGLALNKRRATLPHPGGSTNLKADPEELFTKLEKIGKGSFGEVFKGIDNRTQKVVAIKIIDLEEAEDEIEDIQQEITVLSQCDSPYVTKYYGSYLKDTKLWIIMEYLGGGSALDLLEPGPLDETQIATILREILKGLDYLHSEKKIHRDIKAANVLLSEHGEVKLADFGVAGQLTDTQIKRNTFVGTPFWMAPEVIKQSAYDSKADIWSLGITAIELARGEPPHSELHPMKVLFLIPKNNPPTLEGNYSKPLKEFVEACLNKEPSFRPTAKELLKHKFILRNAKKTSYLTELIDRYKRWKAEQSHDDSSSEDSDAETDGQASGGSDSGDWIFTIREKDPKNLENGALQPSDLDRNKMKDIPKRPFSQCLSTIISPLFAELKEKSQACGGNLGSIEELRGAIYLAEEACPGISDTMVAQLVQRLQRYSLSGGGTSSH
# TEST SUMMARY: Binding affinity to recombinant MST3 (unknown origin) assessed as change in melting temperature by DSF analysis
READOUT: ΔTm (°C)
Answers are plain numbers, in °C.

{"columns": ["SMILES INPUT", "UOM", "ΔTm"],
 "data": [
  ["CNc1ncc2cc(-c3ccc(-c4cccc(C)n4)cc3Cl)c(=O)n(CCCCO)c2n1", "°C", 5.7],
  ["CNc1ncc2cc(-c3ccc(-c4cccc(C)n4)cc3Cl)c(=O)n(CCOC)c2n1", "°C", 6.7],
  ["COc1cc(N2CCOCC2)ccc1Nc1ncc2cc(-c3ccc(-c4cccc(C)n4)cc3Cl)c(=O)n(CCCCN)c2n1", "°C", 11],
  ["Cc1cccc(-c2ccc(-c3cc4cnc(Nc5ccc(O)cc5)nc4n(CCCCN)c3=O)c(Cl)c2)n1", "°C", 17.1],
  ["CNc1ncc2cc(-c3ccc(-c4cccc(C)n4)cc3Cl)c(=O)n(C[C@H]3CC[C@H](N)CC3)c2n1", "°C", 10.8]
]}

Batch of 8 molecules: report ΔTm for each.
1. Cc1cccc(-c2ccc(-c3cc4cnc(Nc5ccc(C)c(O)c5)nc4n(CCCCN)c3=O)c(Cl)c2)n1
2. CNc1ncc2cc(-c3ccc(-c4cccc(C)n4)cc3Cl)c(=O)n(CCCOC)c2n1
3. CNc1ncc2cc(-c3ccc(-c4cccc(C)n4)cc3Cl)c(=O)n(CCCO)c2n1
4. CNc1ncc2cc(-c3ccc(-c4cccc(C)n4)cc3Cl)c(=O)n(CCN)c2n1
5. Cc1cccc(-c2ccc(-c3cc4cnc(NCCCN5CCCC5=O)nc4n(CCCCN)c3=O)c(Cl)c2)n1
6. CNc1ncc2cc(-c3ccc(-c4cccc(C)n4)cc3Cl)c(=O)n(CCCN)c2n1
7. CNc1ncc2cc(-c3ccc(-c4cccc(C)n4)cc3Cl)c(=O)n(CCCCCN)c2n1
8. Cc1cccc(-c2ccc(-c3cc4cnc(Nc5ccc(CCCO)cc5)nc4n(CCCCN)c3=O)c(Cl)c2)n1

Response:
17.5
5.1
6.2
5.5
10.6
7.9
9.2
16.7

Batch of 5 molecules: report ΔTm for each.
1. CNc1ncc2cc(-c3ccc(-c4cccc(C)n4)cc3Cl)c(=O)n(CCCCOC)c2n1
2. Cc1cccc(-c2ccc(-c3cc4cnc(Nc5cc(C(F)(F)F)ccc5C)nc4n(CCCCN)c3=O)c(Cl)c2)n1
3. CNc1ncc2cc(-c3ccc(-c4cccc(C)n4)cc3Cl)c(=O)n(CCCCN)c2n1
4. Cc1cccc(-c2ccc(-c3cc4cnc(NCCCc5ccc(N)cc5)nc4n(CCCCN)c3=O)c(Cl)c2)n1
5. Cc1cccc(-c2ccc(-c3cc4cnc(NC(CO)CO)nc4n(CCCCN)c3=O)c(Cl)c2)n1

Response:
[6.2, 13, 11.7, 12.2, 10.6]
